These data points were gathered from ChEMBL document CHEMBL5360661.

# test summary: Competitive inhibition of 5-FAM labelled diABZI binding to recombinant human STING R293Q variant C-terminal domain (139 to 378 residues) expressed in Escherichia coli BL21 (DE3) cells incubated for 10 mins by fluorescence polarization assay
reported property: IC50 (µM)

Please review the entries below; each comes with its answer.
smiles text	unit text	IC50
O=C(Nc1cc(F)c(F)cc1C(=O)O)c1ccc(-n2ccnc2)nn1	µM	5.54
CCCn1c(NC(=O)c2cc(C)nn2C)nc2cc(C(N)=O)cc(OC3COC3)c21	µM	3.82
N#Cc1ccn(-c2ccc(C(=O)Nc3cc(Cl)c(Cl)cc3C(=O)O)nn2)c1	µM	2.56

[a] N#Cc1ccn(-c2ccc(C(=O)Nc3cc(Br)c(Cl)cc3C(=O)O)nn2)c1
[b] C#Cc1cc(NC(=O)c2ccc(-n3ccc(C#N)c3)nn2)c(C(=O)O)cc1F
Two entries are listed, a and b . Which one carries the higher IC50? When you have decided, please share the label of that item.
b
